pIC50: −log10 of the molar value.
Consider the following pIC50 data for UniProtKB P23946, collected from several reports.
Quick rule: pIC50 of at least 8 means fulfilled, below that means not fulfilled.

CC[C@@H](CC(=O)O)n1c(=O)c2ccccc2n(Cc2nsc3cc(C)cc(C)c23)c1=O    fulfilled
CCC[C@@H](CC(=O)O)n1c(=O)n(Cc2nsc3cc(C)cc(C)c23)c2ccc(C)nc21    fulfilled
CCOC(=O)c1cnc(-c2ccccc2)n(CC(=O)NC(Cc2ccccc2)C(=O)C(=O)CCCOc2ccccn2)c1=O (centres unmarked)    not fulfilled
CCC[C@H](C(=O)O)n1c(=O)c2ccccc2n(Cc2cn(C)c3cc(C)cc(C)c23)c1=O    fulfilled
Cc1cc(C)c2c(Cn3c(=O)n([C@H](C(=O)O)c4ccc(Cl)cc4)c(=O)c4ccccc43)nsc2c1    fulfilled

Inquiry: Could you verify whether the entry Cc1cc(C)c2c(Cn3c(=O)n([C@H](CC(=O)O)c4ccccc4)c4cc(C)ncc43)nsc2c1 shows pIC50 of no less than 8?
Reply text: fulfilled

====

Published IC50 for Chymase (Homo sapiens, UniProt P23946), assembled from different documents, is shown next.

Answered cases to consult:
O=C(O)C1Oc2ccc(S(=O)(=O)n3c(=O)[nH]c4cc(Cl)ccc4c3=O)cc2NC1=O (racemic)    1700 nM
Nc1cccc(S(=O)(=O)n2c(=O)[nH]c3cc(Cl)ccc3c2=O)c1    440 nM
Cc1cc(C)c2c(Cn3c(=O)n([C@H](CC(=O)O)c4ccccc4)c4ccncc43)nsc2c1    11.2 nM
Cc1cccc2c1c(Cn1c(=O)n(CC3(C(=O)O)CCCCC3)c(=O)c3ccccc31)cn2C    3 nM
Cc1ccc2c(n1)n([C@H](CC(=O)O)c1cccc(Cl)c1)c(=O)n2Cc1cn(C)c2cccc(C)c12    7.07 nM
Cc1cc(C)c2c(Cn3c(=O)n([C@H](CC(=O)O)c4ccccc4)c4ncccc43)cn(C)c2c1    0.61 nM
CCCC[C@H](C(=O)O)n1c(=O)c2cc(OC)ccc2n(Cc2cn(C)c3cccc(C)c23)c1=O    1.6 nM
Cc1cccc2c1c(Cn1c(=O)n([C@H](CC(=O)O)c3ccccc3)c3ncccc31)cn2C    2.21 nM
Cc1cccc2c1c(Cn1c(=O)n(CC(CC(=O)O)c3ccccc3)c(=O)c3ccccc31)cn2C (centres unmarked)    3 nM
CCCC(CC(=O)O)n1c(=O)n(Cc2cn(C)c3cc(C)cc(C)c23)c2ccc(C#N)nc21 (centres unmarked)    1.06 nM

For each entry beneath this line, provide reported IC50.
1. Cc1cccc2c1c(Cn1c(=O)n([C@H](CC(=O)O)c3ccc(F)cc3)c3nc(C#N)ccc31)cn2C
2. CC(C(=O)O)C(=O)Nc1cccc(S(=O)(=O)n2c(=O)[nH]c3cc(Cl)ccc3c2=O)c1 (centres unmarked)
3. CCCC[C@@H](C(=O)O)n1c(=O)c2ccc(OC)cc2n(Cc2cn(C)c3cccc(C)c23)c1=O
4. Cc1cccc2c1c(Cn1c(=O)n([C@@H](C(=O)O)c3ccccc3)c(=O)c3ccccc31)cn2C
5. CCC(CC(=O)O)n1c(=O)c2ccccc2n(Cc2nsc3cc(C)cc(C)c23)c1=O (centres unmarked)

Reply text:
1. 0.245 nM
2. 300 nM
3. 4.9 nM
4. 1 nM
5. 2 nM

Would you mind listing IC50 for each of the following compounds?
1. Cc1cccc2c1c(Cn1c(=O)n([C@H](CC(=O)O)c3ccccc3)c3nc(C(C)C)ncc31)cn2C
2. Nc1ccccc1S(=O)(=O)n1c(=O)[nH]c2cc(Cl)ccc2c1=O

Reply text:
12.6 nM
140 nM
